# Test system: CDKN1C gene expression
# assayName: CDKN1C gene expression in Kelly neuroblastoma cells
# Type: cell-based
# testConditions: Kelly cells; 20 μM; 20-24 hours; normalized to 18S RNA; vs DMSO control; read-out: fold-increase in CDKN1C mRNA expression
Below, each entry is listed alongside its reported fold induction at 20 µM.

smilesStr: O=C(O)CNC(=O)c1ncc2cc(Sc3ccccc3)ccc2c1O
measuredOn: CDKN1C gene expression
fold induction at 20 µM: 183

smilesStr: O=C(O)CNC(=O)c1nc(Oc2ccccc2)c2cc(Oc3ccccc3)ccc2c1O
measuredOn: CDKN1C gene expression
fold induction at 20 µM: 3.4

smilesStr: O=C(O)CNC(=O)c1nc2cc(Cl)ccc2cc1O
measuredOn: CDKN1C gene expression
fold induction at 20 µM: 11.6

smilesStr: C[C@H](NC(=O)c1ncc2cc(Sc3ccccc3)ccc2c1O)C(=O)O
measuredOn: CDKN1C gene expression
fold induction at 20 µM: 120

smilesStr: O=C(O)CNC(=O)c1ncc2cc(Cl)c(Cl)cc2c1O
measuredOn: CDKN1C gene expression
fold induction at 20 µM: 6.9
